assay: yeast display, Sf9 membrane polyspecificity reagent, FACS + sequencing; frameworks hold sequencing errors

polymer sequence	polyreactivity (PSR sort gate)
QVQLVESGGGLVQAGGSLRLSCAASGSTFSTYDMGWYRQAPGKEREFVAAISDSGGSTYYADSVKGRFTISRDNAKNTVYLQMNSLKPEDTAVYYCNATVVFVQYVDYDYWGQGTQVTVSS	low polyreactivity
QVQLVESGGGLVQAGGSLRLSCPASGFTFVSYAMGWYRQAPGKERELVAAISRSGGTTYYADSVKGRFTISRDNAKNTVYLQMNSLKPEDTAVYYCAADFYVFYTRYYYWGQGTQVTVSS	low polyreactivity

----------
test: yeast display, Sf9 membrane polyspecificity reagent, FACS + sequencing; frameworks hold sequencing errors
endpoint name: polyreactivity (PSR sort gate)

Use these answered entries as a reference point.
polymer sequence	result
QVQLVESGGGLLQAGGSLRLSSAASGVYAMGWYRQAPGKERELVAAISRRGGSTYYADSVKGRFTISRDNAKNTVYLQMKSLNPADTAVYYCAADYTSRTRGNRDRLDYWGQGTQVTVSS	high polyreactivity
QVQLVESGGGLVKAGGSLGLSCAASGRTLRYYAMGWYRQAPRKERELVASISIGGSTYYADSVKGRFTISRDNAKNTVYLQMNSLKPEDTAVYYCATDYSNSGYGYWGQCTQVTVSS	low polyreactivity
QVQLVESGGGLVQAGGSLRLSCAASGSTFNSYTMGWSRQAPGEERELVAAITWSGGRTYYADSVKGRFTISRDNAKNTVYLQMNSLKPEATAVYYCAKDRVGEMYYWGQGTQVTVSS	low polyreactivity
QVQLVESGGGLVQAGGSLRLSCAASVRIFGVYAMGWYRQAPGKERELVAAITSGGSTTYADSVKGRFTISRDNAKNTVYLQMNSLKPEDTAVYYCNKEPQPFFLYGYWGQGTQVTVSS	low polyreactivity
QVQLVESGGGLVQAGGSLRLSCAASRSTIPSYAMGWSRQAPGKERELVASITYSDGTTRYADSVKGRFTISRDNAKNTVYLQMNSLKPEDTAVYYCNAVYYRDGMDYWGQGTQVTVSS	low polyreactivity
QVQLVESGGGLVQAGGSLRLSCAASGSIIRGNAMGWYSQAPGKERELVATITNGGSTNYADSVKGRFTISRDNAKNTVYFQMNSMKPEDTAVYYCNADHSYHIASTRHVDFWGQGTQVTVSS	low polyreactivity
QVQLVESGGGLVQAGGSLRLSCAASGRTFVYNAMGWYRQAPGKERELVAAITTNGGSTYYADSVKGRFTISRDNSKNTVYLQMNSLKPEDTAVYYCAADYSLPWSWLYEYWGQGTQVTVSS	low polyreactivity
QVQLVESGGGLVQAGGSLRLSCADSGRIFGPYAMGWYRKAPGKERELVAAIRASSSTYYADSVKGRFTISRDNAKNTVYLQMNSLKPEDTAVYYCAADWYYGYAWKYGYWGQGTQVTVSS	low polyreactivity

Could you tell me which polyreactivity (PSR sort gate) is on file for QVQLVESGGGLVQAGGRLRLSCAASGSTFSFNAMGWYRQAPGKERELVAAIRVSSGTTYYADSVKGRFTISRDNAKNTVYLQMNSLKPEDTAVYYCAARYYYDWRQYGYWGQGTQVTVSS ?
high polyreactivity

Requested field: polyreactivity (PSR sort gate). Item: QVQLVESGGGLVQAGGSLRLSCAASGRIFVYNAMGWYRQAPGKERELVASISWSGDSTYADSVKGRFTISRDNAKNTVYLQMNSLKPEDTAVYYCAAYSQADYQNMDYWGQGTQVTVSS
low polyreactivity

Given the sequence QVQLGESGGGLVQAGGSLRLSCAASGSTFTSYAMGGSRQAPGKERELVAAITHRGSTNYADSVKGRFTISRDNAKYTVDLQMNSLKPEDTAVYYCNARYATSVLYDYWRQGTQVTVSS , what is its reported polyreactivity (PSR sort gate)?
high polyreactivity

----------
experiment: yeast display, Sf9 membrane polyspecificity reagent, FACS + sequencing; frameworks hold sequencing errors
endpoint name: polyreactivity (PSR sort gate)

polymer sequence	polyreactivity (PSR sort gate)
QVQLVESGGGLVQAGGSLRLSCAASGFTVGYAMGWYRQAPGTERELVAAITRGGGTRTSYADSVKGRFTISRDNAKNTVYLQMNSLKPEDTAVYYCAARRWWSPRTQYDYWGQGTQVTVSS	high polyreactivity
QVQLVESGGGLVQAGGSLRLSCAASGSIFLGNAMGWYRQAPGKESELVAAISSITGRTYYADSVKGRFTISRDNAKNTVYLQMNSLKPEDTAVYYCNKVKRSFIVNTDDYWGQGTQVTVSS	high polyreactivity
QVQLVESGGGLVQAGGSLRLSCAASGFILPNYAMGWYRQAPGKERELVAASTYIGGSTYYADSVKGRFTISRDNAKHTVYLQMNSLKPEDTAVYYCAKYWLGYTKYDYWGQGTQVTVSS	low polyreactivity
QVQLVESGGGLVQAGGSLRLSCAASGSTLDGNTMGWYRQAPGKERELVAAISRSGTSTYYADSVKGRFTISRDNAKNTVYLQMNSLKPEDTAVYYCNAEASDLYYVYLEYDYWGQGTQVTVSS	low polyreactivity

Bench note: what polyreactivity (PSR sort gate) did QVQLVESGGGLVQAGGSLRLSCAASGSTFDYNAMGWYRQAPGKERELVAAISWRGGGTYYADSVKGRFTISRDNAKNTVYLQMNSLKPEDTAVYYCNTVSRNGFYRSRHDYWGQGTQVTVSS show?
low polyreactivity

----------
test: yeast display, Sf9 membrane polyspecificity reagent, FACS + sequencing; frameworks hold sequencing errors
endpoint name: polyreactivity (PSR sort gate)

Look over these answered cases.
polymer sequence	polyreactivity (PSR sort gate)
QVQLLESGGGLVQAGGSLRLSCAASGRTFHFNAMGWYRKAPWKERELVAAITNSGGRTSYADSVKGRFTISRDNAKNTVYLQMNSLKPEDTAVYYCNVEVTYSSGKYDYWGQGTQVTVSS	low polyreactivity
QVQLVESGGGLVQAGGSLRLSCSASGRTFYRNAMGWYRQSPGKESEFVAVISVSGGSTYYADSVKGRFTISRDNAKNTVYLQMNSLKPEDTAVYYCAADEYYTFSCFELRRMDYWGQGTQVTVSS	low polyreactivity
QVQHVESGGGLVQAGGSLRLSCAASGFTFGYYAMGWYRQAPGKESELVAAIRSSGGSTYYADSVKGRFTISRDYAKNTDYLQMNSLKPEDSAVYYCAVLYGYLSSSRYGYDSWGKGTQVTVSS	high polyreactivity
QVQLVESGGVLVQAGGSLRLSCAASGRTFFNYAMGWYRQAPGKESEFVASISWSDVITYYADSVKGRFTISRDNAKNTVYLQMNSLKQEDTAVYYCAASKVGGGEEYWGQGTQVTVSS	low polyreactivity

// moving on: another record for polyreactivity (PSR sort gate)
Quick one: polyreactivity (PSR sort gate) of QVQLVESGGGLVQAGGSLRLSCAASGRIFRDYAMGWYRQAPGKERELVAAITRSGDTTYYADSVKGRFTISRDNAKNTVYLQMNSLKPEDTAVYYCAARYVSRYYVYRGFEYWGQGTQVTVSS ?
high polyreactivity

----------
experiment: yeast display, Sf9 membrane polyspecificity reagent, FACS + sequencing; frameworks hold sequencing errors
endpoint name: polyreactivity (PSR sort gate)

The cases that follow already have their polyreactivity (PSR sort gate) on record.
polymer sequence	polyreactivity (PSR sort gate)
QVQLVESGGGLVQAGGSLRLSCAASGRTFVPYTMGWYRQAPGKERELVAAISRSGARTYYADSVKGRFTISRDNAKNTVYLQMNSLKPEDTAVYYCVVIARYGYDYWGQGTQVTVSS	high polyreactivity
QVQLVEPGGGLVQAGGSLRLSCAASGRIFRGYAMGWYRQAPGKVRELVAANSQSGSSTYYADSVKGRFTISRDNAKNTVYLKMNSLKPEDTAVYYCAVKYLKHFGYWGQGTQVTVSS	high polyreactivity
QVQLVESGGGLVQAGGSLRLSCAASGRIFLINAMGWYRQAPGKERELVAAITGGGGSTYYADSVKGRFTISRDNAKNTVYLQMNSLKPEDTAVYYCAARGTAERDYWGQGTQVTVSS	high polyreactivity
QVQLEESGGGLVQAGGSLRLSCAASGRTFNRYVMGWYRQAPGKERELVAAITWRGGSTYYADSVKGRFTISRDNAKTSVYLQMNSLKPEDTAVYYCAARYSGGYSVDAFDYWGQGTQVTVSS	high polyreactivity
QVQLVESGGGVVQAGGSLRLTCAASGFTFSYNAMGWYRQAPGKERQLVAAISYSGGSTYYADSVKGRFTISRDTAKNTVYLQMNSLIPEHTAVYYCAAYSYYNYPNRGVYRGYYYWGQGTQGTVSS	high polyreactivity

Using the record for QVQLVESGGGLVQAGGSLRLSSAASGSIFIGYAMGWYRQAPGKARELVAAINDSGDRTYYADSVKGRFTISRDNAKNTVFLQMNSLKREDTAVYYCAADLGSLDPEYDYWGQGTQVTVSS , report its polyreactivity (PSR sort gate).
low polyreactivity

Could you tell me which polyreactivity (PSR sort gate) is on file for QVQLVESGGGLVQAGGSLRLICAASGRTFYSYAMGWYRQAPGKERELVAAISSGGTTYYADSVKGRFTISRDNAKNTDYLQMNSLKPEDTAVYYCATSRAWRYRSYYWGQGTQVTVSS ?
high polyreactivity

Dear colleague, I am looking for the recorded polyreactivity (PSR sort gate) of the following sequence: QVQLVESGGGLVQAGGSLRLSCAASGSTFIRYAMGWYRQAPGKERELVAAITSGGRTNYADSVKGRFTISRDNAKNTVYLQMNSLKPEDTAVYYCAKLRWVYGRQTLMDYWGQGTQVTVSS
high polyreactivity

# credit: the nanobody polyreactivity screen of Harvey et al. (2022)
